Tested on: UACC-62 melanoma
Assay: NCI tumour cell line growth inhibition, 48 h; in the data active = GI50 below about 0.43 µM; inactive = the rest
Labels: 1 = active, 0 = inactive

* CC(=O)O[C@H]1C(=O)[C@@]2(C)[C@H]([C@H](OC(=O)c3ccccc3)[C@]3(O)C[C@H](OC(=O)[C@H](OC(=O)CCC(=O)OC4CCC(S/N=C(N)/N=C(\N)N(C)C)CC4)[C@@H](NC(=O)c4ccccc4)c4ccccc4)C(C)=C1C3(C)C)[C@]1(OC(C)=O)CO[C@@H]1C[C@@H]2O (some centres not stated) | 1
* O=[N+]([O-])c1ccccc1/C=C/C=C1c2ccccc2-c2ccccc21 | 0
* O=C1CC(N2C(=O)/C(=C/C(Cl)=C\c3ccc([N+](=O)[O-])cc3)SC2=S)C(=O)N1c1ccc(Cl)cc1 (configuration not stated) | 0
* Cc1c(N(C(=O)c2cc(-c3cc(Cl)ccc3C(=O)N3Cc4ccccc4C[C@H]3CN3CCOCC3)n(C)c2C)c2ccc(O)cc2)cc(C#N)n1C | 0
* CN(C)c1ccc2[nH]c(O)c(C=Nc3ccc(S(N)(=O)=O)cc3)c2c1 | 0
* N#C/C(=C\c1ccc(Br)cc1)n1nnc2cc(F)c(F)cc21 | 0
* C[C@@H](Oc1cc(-c2cnn(C3CC4(CCNCC4)C3)c2)cnc1N)c1c(F)ccc(Cl)c1Cl | 0

----------
Test system: UACC-62 melanoma
Experiment: NCI tumour cell line growth inhibition, 48 h
assay-metric: TGI (µM)

- C=C(CO)[C@H]1CC/C(C)=C/CC/C(C)=C/C/C=C(\C)[C@H](O)C1: 58.4
- O=C(/C=C/C12c3ccccc3C(c3ccccc31)C1C(=O)NC(=O)C12)c1ccco1 (configuration not stated): 4.9
- O=C1c2scnc2-c2nccc3c2c1nc1ccccc13: 1.45
- Cc1ccc(-c2nc3nc(-c4ccc(Cl)cc4)nc(N4CCCNCC4)c3o2)cc1: 3.24
- O=C1c2ccccc2-c2ccc(O)cc21: 30.9
- COc1ccc(-c2cc(=O)c3c(O)c(OC)c(O)cc3o2)cc1O: 31.4
- CN1CCN(Cc2ccc(NC(=O)c3[nH]ncc3Nc3ccnc4ccsc34)cc2)CC1: 30.2
- C=C1C(=O)O[C@H]2[C@H]1CC/C(Cn1cc(Cn3ccc4cc(Cl)ccc43)nn1)=C\CC[C@@]1(C)O[C@@H]21: 2.78
- Nc1nc(F)nc2c1ncn2C1OC(COP(=O)(O)O)C(O)C1O (configuration not stated): 247
- CCCCC1Cc2cc(OC)ccc2-c2nc3cc(OC)ccc3n21 (configuration not stated) (tested in a mixture with another compound): 25.5
- C/C=C/C/C=C/CCC(=O)C1OC1C(N)=O (configuration not stated): 29.3
- CC(=O)CCC(=O)CC(O)(C(F)(F)F)C(F)(F)F: 32
- C[C@@H](Oc1cc(-c2cnn(C3CC4(CCNCC4)C3)c2)cnc1N)c1c(F)ccc(Cl)c1Cl: 3.16
- O=C(c1cccs1)c1c(C(F)(F)F)n([O-])c2cc(C(F)(F)F)ccc2[n+]1=O: 1.28
- COc1cc(/C=C2\C[C@H]3[C@@H]4CC=C5C[C@@H](OC(C)=O)CC[C@]5(C)[C@H]4CC[C@]3(C)[C@H]2OC(C)=O)ccc1OCCCn1ccnc1: 16.1
- C[C@]12CC[C@H]3[C@@H](CC=C4C[C@@H](O)CC[C@@]43C)[C@@H]1C/C(=C\c1cccc(OCCCn3ccnc3)c1)[C@@H]2O: 29
- OC1C=C2C3CN(Cc4cc5c(cc43)OCO5)[C@H]2C[C@@H]1O (some centres not stated): 68.4
- CCN(CC)CCCN1C(=O)c2c(c(C)c3c(oc4cc(O)ccc43)c2C)C1=O: 3.44
